All values here come from the OPERA property sets (Mansouri et al. 2018).

Conditions: 20 °C
property: solubility (µM)
One number for each entry, in µM.

Entry under review: "c1cc[n+]2c(c1)-c1cccc[n+]1CC2" . Reported solubility?
376

====

Conditions: 21 °C
property: solubility (mM)
Numbers only, in mM.

Could you tell me which solubility is on file for "CNc1nc(NC(C)C)nc(OC)n1" ?
17.7

====

Task for the reader: assign each of the following molecules its reported solubility.
One number for each entry, in µM.

Some entries whose results are on file:
- structure: "O=c1[nH]cc(Br)c(=O)[nH]1"
  unit-label: "µM"
  value: 4270
- structure: "CCOP(=O)(OCC)Oc1cc(C)[nH]n1"
  unit-label: "µM"
  value: 4270
- structure: "O=C(NN=C1C=CC(=NO)C=C1)c1ccccc1"
  unit-label: "µM"
  value: 20.7
- structure: "CCCN(CCC)c1c([N+](=O)[O-])cc(C)cc1[N+](=O)[O-]"
  unit-label: "µM"
  value: 1080
- structure: "C=C(C)C(=O)Nc1ccc(Cl)c(Cl)c1"
  unit-label: "µM"
  value: 36.9

In the following, a different molecule is considered.
Any idea what its solubility is? The molecule is "COCCNC(=O)CSP(=S)(OC)OC"
73200

====

Settings: 25 °C
Please provide measured solubility for the entries that follow.
Please answer using the number first and the unit second.

Worked examples follow.
- structure: "Cc1nn(-c2ccccc2)c(C)c1N=O"
  property: "solubility"
  value: "0.184 mM"
- structure: "CCOP(=O)(OC=CCl)OCC"
  property: "solubility"
  value: "46.6 mM"
- structure: "CC(Cl)=CCl"
  property: "solubility"
  value: "24.3 mM"

What value of measured solubility is listed for "C/C=C(/C)C(=O)O[C@H]1CC[C@@]2(C)[C@@H]3CC[C@H]4[C@]5(O)C[C@H](O)[C@@]6(O)[C@@H](CN7C[C@@H](C)CC[C@H]7[C@@]6(C)O)[C@]5(O)C[C@@]42O[C@]13O" ?
0.963 mM
